- target_desc: Tyrosine-protein kinase JAK2 (Homo sapiens) (UniProt O60674)
- Sequence (O60674 whole entry, looked up, stated change not applied): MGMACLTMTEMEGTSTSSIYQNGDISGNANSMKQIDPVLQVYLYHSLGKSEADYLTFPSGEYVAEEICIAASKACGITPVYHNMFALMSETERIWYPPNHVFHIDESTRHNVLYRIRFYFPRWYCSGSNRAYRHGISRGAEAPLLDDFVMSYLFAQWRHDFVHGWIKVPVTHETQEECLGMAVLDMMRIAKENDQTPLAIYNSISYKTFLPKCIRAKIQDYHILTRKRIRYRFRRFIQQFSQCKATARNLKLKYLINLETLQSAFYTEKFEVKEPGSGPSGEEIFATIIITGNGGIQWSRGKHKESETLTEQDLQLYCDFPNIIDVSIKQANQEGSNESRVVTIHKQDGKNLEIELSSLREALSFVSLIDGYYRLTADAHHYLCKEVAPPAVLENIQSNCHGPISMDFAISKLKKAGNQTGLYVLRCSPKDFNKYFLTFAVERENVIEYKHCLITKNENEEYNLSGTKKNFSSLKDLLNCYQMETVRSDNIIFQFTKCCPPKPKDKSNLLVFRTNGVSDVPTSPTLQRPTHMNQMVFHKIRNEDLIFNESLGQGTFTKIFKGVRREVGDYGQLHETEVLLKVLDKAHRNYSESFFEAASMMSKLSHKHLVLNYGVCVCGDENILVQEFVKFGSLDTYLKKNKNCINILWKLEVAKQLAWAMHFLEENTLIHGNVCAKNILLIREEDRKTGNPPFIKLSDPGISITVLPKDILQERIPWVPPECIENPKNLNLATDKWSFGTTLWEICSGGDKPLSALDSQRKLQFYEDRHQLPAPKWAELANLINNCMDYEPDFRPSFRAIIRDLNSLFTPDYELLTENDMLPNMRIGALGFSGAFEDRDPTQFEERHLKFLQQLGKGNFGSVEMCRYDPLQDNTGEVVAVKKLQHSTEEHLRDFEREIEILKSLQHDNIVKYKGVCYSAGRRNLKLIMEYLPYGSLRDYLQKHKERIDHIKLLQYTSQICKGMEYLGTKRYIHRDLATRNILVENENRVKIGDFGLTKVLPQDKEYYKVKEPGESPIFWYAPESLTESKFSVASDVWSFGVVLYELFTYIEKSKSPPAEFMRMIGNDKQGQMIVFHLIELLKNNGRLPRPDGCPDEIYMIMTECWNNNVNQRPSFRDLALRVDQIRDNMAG
- protocol_notes: JAK2V617F kinase, IRF1 reporter and Ba/F3 cytotoxicity panel, late-stage follow-up, HEL and Ba/F3 cells (AID 2165)
- reported_conditions: Ba/F3, irf1 reporter
Active and inactive are the calls of the source. Cut-off read from the data, not from the text of the source: active = IC50 below about 9 µM; inactive = the rest.
One label from this list, please: 1 = active, 0 = inactive

Answer briefly: the call reported for COc1ccc(C=CC(=O)c2c3c(c(C)[nH]c2=O)CCCC3)cc1 in this assay.
0

Each molecule tested received a call. Report the one for CC1CCCC(NC(=O)NC(=O)CCl)C1C (stereo not drawn) .
1

// param item: CCC(C)[C@@H](NC(=O)OC(C)(C)C)c1nnc(S(=O)(=O)Cc2cccc(C)c2)o1 (stereo partly drawn) ; yields the recorded call
1

Called result for Cc1cc(SCC(=O)N/N=C/c2ccc(O)c(O)c2)c(C)cc1Br
1

Outcome logged for COc1ccccc1/C=C/C(=O)c1c2c(c(C)[nH]c1=O)CCCC2 in this assay:
0

Hi, sorry to bother you, what did the test record for Nc1nc(N)c2nc(-c3ccccc3)c(N)nc2n1 ?
0

Look up the recorded call for Cc1[nH]c(=O)c(C(=O)C=Cc2ccc(C(C)C)cc2)c2c1CCCC2 in this test.
1

Look up the recorded call for Cc1ccc(C=CC(=O)c2c3c(c(C)[nH]c2=O)CCCC3)cc1 in this test.
1

For COc1ccc(-n2nnnc2SCC(=O)c2ccc(O)c(O)c2)cc1 , what call appears in the results of this test?
1

Could you please tell me the result logged for CCOc1ccc(C(=O)C(CN2CCOCC2)c2ccccc2)cc1 (stereo not drawn) in this assay?
1

State the result this test recorded for COc1cccc(/C=N/NC(=O)c2[nH]c(C)c(C(=O)N/N=C/c3cccc(OC)c3O)c2C)c1O .
1

Call for entry COc1ccccc1-c1nnc(Sc2nc([N+](=O)[O-])nn2C)o1 :
1

What classification did N#CC(C#N)=Cc1ccc(O)c(O)c1 end up with in this test?
1

Can you look up the reported call for COc1cccc(F)c1C(C[N+](=O)[O-])c1c(N)n(C)c(=O)n(C)c1=O (stereo not drawn) for me?
1

Assay outcome for COc1cc(/C=C2\COC/C(=C\c3ccc(O)c(OC)c3)C2=O)ccc1O : what was it?
1

Call for entry O=C1/C(=C/c2ccc(O)c(O)c2)SC(=S)N1Nc1ccccc1 :
1

How did this test come out for Clc1ccc(-n2nnnc2Sc2ncnc3sccc23)cc1 ?
1

Dear colleague, could you share the recorded outcome for CN(C)C(=S)SSC(=S)N(C)C when you have a moment?
1

Called result for O=S(=O)(c1cnc(Cl)c(Br)c1)N1CCc2ccccc21
1

What is the recorded call for this molecule in the test? CS(=O)(=O)c1nc(-c2ccco2)cc(C(F)(F)F)n1
1

Short answer needed: outcome of this test for C/C(=C\c1ccccc1F)C(=O)c1c(C)cc(C)[nH]c1=O ?
0

Tell me the assay call for CC1CCCN(CCCNC(=O)c2cc3c(Cl)nc4ccccc4c3s2)C1 (stereo not drawn) please.
1

Could you please tell me the result logged for Cc1ccc(C)c(Sc2ccc(NC(=O)CCl)cc2)c1 in this assay?
1

====

- target_desc: Tyrosine-protein kinase JAK2 (Homo sapiens) (UniProt O60674)
- protocol_notes: JAK2V617F kinase, IRF1 reporter and Ba/F3 cytotoxicity panel, late-stage follow-up, HEL and Ba/F3 cells (AID 2165)
- reported_conditions: HEL, irf1 reporter
Activity calls are given as the source filed them. Rule as the data show it: active = IC50 below about 9 µM; inactive = the rest.
Exercise: for every item that follows, state its recorded IC50.

Name the recorded IC50 of CCc1cccc(Nc2ncnc3cc(OCCOC)c(OCCOC)cc23)c1 , assay system Tyrosine-protein kinase JAK2 (Homo sapiens) (UniProt O60674).
> 40 µM (inactive)

Please indicate recorded IC50 of Cc1cccc(OCC(=O)Nc2cc(C)ccc2O)c1 measured with Tyrosine-protein kinase JAK2 (Homo sapiens) (UniProt O60674).
> 40 µM (inactive)

Fetch value of IC50 on Tyrosine-protein kinase JAK2 (Homo sapiens) (UniProt O60674) for CC(C)C1C(C#N)=C(N)Oc2n[nH]c(-c3ccc4ccccc4c3)c21 (stereo not given) .
16.1 µM

Consider the compound N#C/C(=C\c1ccc(O)c(O)c1)C(=O)NCCCCc1ccccc1 tested on Tyrosine-protein kinase JAK2 (Homo sapiens) (UniProt O60674); state its IC50.
3.31 µM

Give IC50 for [O-][N+]1=c2ccc(Nc3ccccc3)cc2=NC12CCCCC2 tested on Tyrosine-protein kinase JAK2 (Homo sapiens) (UniProt O60674).
7.02 µM

With Tyrosine-protein kinase JAK2 (Homo sapiens) (UniProt O60674) as the test system, provide measured IC50 for this compound: O=C(CCl)N(C/C=C/c1ccccc1)c1ccc2c(c1)OCCO2
12 µM

Find the measured IC50 of Clc1ccc(-n2nnnc2Sc2ncnc3sccc23)cc1 with Tyrosine-protein kinase JAK2 (Homo sapiens) (UniProt O60674) as test system.
23.3 µM

GET IC50 | system: Tyrosine-protein kinase JAK2 (Homo sapiens) (UniProt O60674) | item: Cc1nc2c(=O)n(C)c(=O)n(C)c2nc1Cl
15.7 µM

Identify measured IC50 obtained with Tyrosine-protein kinase JAK2 (Homo sapiens) (UniProt O60674) for COC1(OC)C(/C=C/c2ccc(Cl)cc2)C(C#N)(C#N)C1(OC)OC (stereo not given) .
6.57 µM

State IC50 (Tyrosine-protein kinase JAK2 (Homo sapiens) (UniProt O60674)) of COc1ccc(OC)c(NS(=O)(=O)c2ccc(SC)cc2)c1 .
> 40 µM (inactive)

Look up and report measured IC50 (Tyrosine-protein kinase JAK2 (Homo sapiens) (UniProt O60674)) for the following compound: COc1cc2ncnc(Nc3cccc(Br)c3)c2cc1OC
3.16 µM

// fetch IC50 for Cc1c(Cc2ccccc2)c(=O)oc2c(O)c(O)ccc12 ; system: Tyrosine-protein kinase JAK2 (Homo sapiens) (UniProt O60674)
31.9 µM

# lookup: Tyrosine-protein kinase JAK2 (Homo sapiens) (UniProt O60674) IC50, key = O=S(=O)(c1cnc(Cl)c(Cl)c1)N1CCc2ccccc21
> 40 µM (inactive)

Answer with IC50 of COc1cc2ncnc(Sc3ccc(Cl)cc3)c2cc1OC measured for Tyrosine-protein kinase JAK2 (Homo sapiens) (UniProt O60674).
> 40 µM (inactive)

Name the recorded IC50 of Cc1nc([N+](=O)[O-])c(Br)n1CC(=O)c1ccc2ccccc2c1 , assay system Tyrosine-protein kinase JAK2 (Homo sapiens) (UniProt O60674).
21.1 µM

Lab note: Tyrosine-protein kinase JAK2 (Homo sapiens) (UniProt O60674) assay, enter IC50 for Cc1cccc(OCC(=O)Nc2cccc(O)c2)c1 here
> 40 µM (inactive)

Would you please give the reported IC50 of COc1cc2ncnc(Sc3ccc(C)cc3)c2cc1OC with Tyrosine-protein kinase JAK2 (Homo sapiens) (UniProt O60674)?
4.55 µM

Fill: IC50 (Tyrosine-protein kinase JAK2 (Homo sapiens) (UniProt O60674)) for this compound N#CC(=Cc1ccc(O)c(O)c1)C(=S)NCc1ccccc1
> 40 µM (inactive)

Specify IC50 for O=C(CCl)NCc1cc(-c2ccc(Cl)cc2)no1 , system Tyrosine-protein kinase JAK2 (Homo sapiens) (UniProt O60674).
7.68 µM

Provide the reported IC50 (system: Tyrosine-protein kinase JAK2 (Homo sapiens) (UniProt O60674)) for CCCC(=O)N(C1CC(C)C(C#N)(C#N)C1(C#N)C#N)N(C)C (stereo not given)
5.75 µM
